- Assayed Target: T1, mouse IL-12Rβ2 expressed on cells (mouse, UniProt P97378 24-874)
- T1 construct: HEK293T cells, stably transduced (cDNA NM_008354); also called mIL-12RB2
- T1 sequence: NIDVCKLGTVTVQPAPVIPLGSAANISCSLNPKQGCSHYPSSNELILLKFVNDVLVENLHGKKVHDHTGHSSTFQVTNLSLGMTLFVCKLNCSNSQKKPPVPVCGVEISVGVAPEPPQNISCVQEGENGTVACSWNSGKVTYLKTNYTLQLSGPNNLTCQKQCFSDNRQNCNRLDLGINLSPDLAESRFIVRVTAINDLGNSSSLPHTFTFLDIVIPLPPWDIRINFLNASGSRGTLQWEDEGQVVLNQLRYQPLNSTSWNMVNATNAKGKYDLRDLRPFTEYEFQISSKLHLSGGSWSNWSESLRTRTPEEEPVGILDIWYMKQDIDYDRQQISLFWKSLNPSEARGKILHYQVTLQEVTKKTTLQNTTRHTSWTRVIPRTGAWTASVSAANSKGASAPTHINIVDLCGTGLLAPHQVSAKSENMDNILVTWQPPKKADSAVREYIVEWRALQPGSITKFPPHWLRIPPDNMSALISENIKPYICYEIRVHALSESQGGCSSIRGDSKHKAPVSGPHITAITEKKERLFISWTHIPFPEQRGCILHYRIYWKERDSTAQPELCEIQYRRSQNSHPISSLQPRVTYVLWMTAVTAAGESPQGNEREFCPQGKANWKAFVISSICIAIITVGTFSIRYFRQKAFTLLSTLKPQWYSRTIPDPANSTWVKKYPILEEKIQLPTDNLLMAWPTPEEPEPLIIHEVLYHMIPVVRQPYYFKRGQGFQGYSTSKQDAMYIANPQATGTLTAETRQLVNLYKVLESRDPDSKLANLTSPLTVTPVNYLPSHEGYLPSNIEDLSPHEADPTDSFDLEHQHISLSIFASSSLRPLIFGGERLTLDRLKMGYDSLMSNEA
- Test Details: flow cytometry, P.E. VHH on HEK293T cells stably expressing mIL-12RB2
Measured Metric: % cells bound
Please don't drop the unit; write it after the number.

Lookup: Return reported % cells bound. Input binder: anti-IL-12Rβ2 VHH clone 3CRHM85 (VHH, not shown: small tags and cut ends, tested as periplasmic extract; also called 21061) VHH: QVQLQESGGGLVQPGGSLRLSCAASRRTFSKHAMAWFRQAPGKEREFVAVVRWSGIITYYADSVKGRFTISRDDAKNTVYLQMDSLKPEDTAVYYCAAGDYRGNGYYVPGMYDYWGQGTQVTVSS
Found: 1.7%

Lookup: Return reported % cells bound. Input binder: anti-IL-12Rβ2 VHH clone 3CRM95 (VHH, not shown: small tags and cut ends, tested as periplasmic extract; also called 20465) VHH: QVQLQESGGGLVQAGDFLRLSCVFSGGTFGDYSMGWFRQAPGKEREFVAAIRWSGDSTQYAEAVKGRFTISRDNAKSTVYLQMSSLKPEDTAVYYCAADPSYYIGPNHTPSRYRDWGQGTQVTVSS
Found: 6.74%

Lookup: Return reported % cells bound. Input binder: anti-IL-12Rβ2 VHH clone 2CRM40 (VHH, not shown: small tags and cut ends, tested as periplasmic extract; also called 20448) VHH: QVQLQESGGGLVQTGGSLRLSCAASGRTYAMAWFRQAPGKEREFAAVIIGGDRTYYANSVKDRFTISRDNAKETVYLQMNNLKPEDTAVYYCAANRRLYNSGRGYSQSEYEYWGQGTQVTVSS
Found: 32.8%

More entries:
Lookup: Return reported % cells bound. Input binder: anti-IL-12Rβ2 VHH clone 2CAM62 (VHH, not shown: small tags and cut ends, tested as periplasmic extract; also called 20493) VHH: QVQLQESGGGLVQAEGSLRLSCVASGRTFSSYGMGWFRQAPGKEREFVTGISSAGSWIGDITSYADSVKGRFTISRDNAKNILYLQMNSLKPEDTAVYYCAAAYHGSRYYVGSTANEYTTWGQGTQVTVSS
Found: 11.2%
